molecular target: EGFR V3 (Homo sapiens, UniProt P00533, DELINS30-297G); construct: expressed in transfected cells; host or cells: BaF3 (murine pro-B), retroviral pMXs-IRES-Blasticidin; test: Activity for inhibiting EGFR (Table A), EGFR V3 (EGFR-Viii); type: cell-based; conditions: read-out: EGFR V3, potency code (IC50)
Sequence (P00533 with tags, fused parts or gaps DELINS30-297G): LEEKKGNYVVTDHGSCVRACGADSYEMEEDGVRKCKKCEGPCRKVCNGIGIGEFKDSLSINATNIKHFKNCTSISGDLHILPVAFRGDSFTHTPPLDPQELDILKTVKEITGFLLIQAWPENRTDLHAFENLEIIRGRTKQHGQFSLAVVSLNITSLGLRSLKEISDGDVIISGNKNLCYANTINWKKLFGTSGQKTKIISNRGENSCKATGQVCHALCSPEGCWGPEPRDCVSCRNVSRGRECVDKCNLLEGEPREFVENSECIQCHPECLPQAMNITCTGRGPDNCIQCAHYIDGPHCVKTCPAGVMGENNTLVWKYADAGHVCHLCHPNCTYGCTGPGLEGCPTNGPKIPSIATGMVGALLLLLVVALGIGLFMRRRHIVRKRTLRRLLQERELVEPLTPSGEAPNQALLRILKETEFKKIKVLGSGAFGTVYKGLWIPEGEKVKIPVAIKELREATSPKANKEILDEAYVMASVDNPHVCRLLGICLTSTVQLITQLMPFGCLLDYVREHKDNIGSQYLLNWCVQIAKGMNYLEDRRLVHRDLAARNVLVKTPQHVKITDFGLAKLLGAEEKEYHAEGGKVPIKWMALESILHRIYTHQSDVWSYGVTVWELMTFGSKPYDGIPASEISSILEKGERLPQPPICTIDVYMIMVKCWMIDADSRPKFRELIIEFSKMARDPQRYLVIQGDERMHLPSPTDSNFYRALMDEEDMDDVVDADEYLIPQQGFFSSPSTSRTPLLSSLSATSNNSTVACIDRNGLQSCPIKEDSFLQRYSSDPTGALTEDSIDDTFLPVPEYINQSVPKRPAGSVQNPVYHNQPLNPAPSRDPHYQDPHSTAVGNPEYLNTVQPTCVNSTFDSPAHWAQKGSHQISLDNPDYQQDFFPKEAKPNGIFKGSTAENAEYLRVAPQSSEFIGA
pIC50: −log10 of the molar value.
Parameter: pIC50

Entry C=CC(=O)Nc1cc2c(Nc3ccc(OCc4ccccn4)c(Cl)c3)ncnc2cc1C#C[C@@H]1CCCN1C ; pIC50 = 6.70 to 7.00

The reported pIC50 of the compound C=CC(=O)Nc1cc2c(Nc3ccc(OCc4cnccn4)c(Cl)c3)ncnc2cc1OCCN1CC2CCC(C1)O2 was 7.30 to 7.52

pIC50 reading for C=CC(=O)Nc1cc2c(Nc3ccc(OCc4cnccn4)c(Cl)c3)ncnc2cc1OCCCN1CC(OC)C1 : 7.30 to 7.52

Note to self: pIC50 recorded for C=CC(=O)Nc1cc2c(Nc3ccc(Oc4ccccc4)c(C)c3)ncnc2cc1C#C[C@@H]1[C@H]2CN(C)C[C@@H]12 was 6.70 to 7.00

Input C=CC(=O)Nc1cc2c(Nc3ccc(OCc4cnccn4)c(Cl)c3)ncnc2cc1OCCN1CCOCC1 . Output pIC50: 7.30 to 7.52

The compound listed as CC#CC(=O)Nc1cc2c(Nc3ccc(OCc4cnccn4)c(Cl)c3)ncnc2cc1OCCCN1CCOCC1 has a reported pIC50 of 7.30 to 7.52

Reported pIC50 ( C=CC(=O)Nc1cc2c(Nc3ccc(OCc4ccccn4)c(Cl)c3)ncnc2cc1OCCN(C)CC ) = 7.52 to 7.70

Field pIC50 (entry C=CC(=O)Nc1cc2c(Nc3ccc(OCc4ccccn4)c(Cl)c3)ncnc2cc1C#C[C@@H]1[C@H]2CN(C3COC3)C[C@@H]12 ) reads 7.00 to 7.30

Recorded result, C=CC(=O)Nc1cc2c(Nc3ccc(OCc4ccccn4)nc3)ncnc2cc1OCCN1CCOCC1 , pIC50: 7.00 to 7.30

For C=CC(=O)Nc1cc2c(Nc3ccc(OCc4ccccn4)cc3F)ncnc2cc1OCCN1CCOCC1 the compound record lists pIC50 as 7.52 to 7.70

The value of pIC50 measured for the compound C=CC(=O)Nc1cc2c(Nc3ccc(OCc4ccccn4)c(Cl)c3)ncnc2cc1OCC12CCC(CC1)N2C turned out to be 7.00 to 7.30

In plain terms, C=CC(=O)Nc1cc2c(Nc3ccc(OCc4ccccn4)nc3)ncnc2cc1O[C@@H]1CCN(C)C1 has a documented pIC50 of 6.30 to 6.52

Short answer for CC#CC(=O)Nc1cc2c(Nc3cc(Cl)c(OCc4cccc(F)c4)cc3F)ncnc2cc1O[C@@H]1CCN(C)C1 : pIC50 was 7.00 to 7.30

GET /value?item= C=CC(=O)Nc1cc2c(Nc3ccc(OCc4ccccn4)c(Cl)c3)ncnc2cc1OCCN1CC(OC)C1 &field=pIC50 returns 7.52 to 7.70

Consider C=CC(=O)Nc1cc2c(Nc3ccc(OCc4ccccn4)c(Cl)c3)ncnc2cc1OCCN1CC2CCC(C1)O2 . Its measured pIC50 is 7.30 to 7.52

----------
biological target: HER2 S310F (Homo sapiens, UniProt P04626, S310F); construct: expressed in transfected cells; host or cells: BaF3 (murine pro-B); assay: BaF3 cell proliferation assay, HER2 S310F (Table B); type: cell-based; settings: potency code, 3 days, CellTiterGlo, read-out: HER2 S310F (Activity for Inhibiting HER2)
Sequence (P04626 23-1255 S310F): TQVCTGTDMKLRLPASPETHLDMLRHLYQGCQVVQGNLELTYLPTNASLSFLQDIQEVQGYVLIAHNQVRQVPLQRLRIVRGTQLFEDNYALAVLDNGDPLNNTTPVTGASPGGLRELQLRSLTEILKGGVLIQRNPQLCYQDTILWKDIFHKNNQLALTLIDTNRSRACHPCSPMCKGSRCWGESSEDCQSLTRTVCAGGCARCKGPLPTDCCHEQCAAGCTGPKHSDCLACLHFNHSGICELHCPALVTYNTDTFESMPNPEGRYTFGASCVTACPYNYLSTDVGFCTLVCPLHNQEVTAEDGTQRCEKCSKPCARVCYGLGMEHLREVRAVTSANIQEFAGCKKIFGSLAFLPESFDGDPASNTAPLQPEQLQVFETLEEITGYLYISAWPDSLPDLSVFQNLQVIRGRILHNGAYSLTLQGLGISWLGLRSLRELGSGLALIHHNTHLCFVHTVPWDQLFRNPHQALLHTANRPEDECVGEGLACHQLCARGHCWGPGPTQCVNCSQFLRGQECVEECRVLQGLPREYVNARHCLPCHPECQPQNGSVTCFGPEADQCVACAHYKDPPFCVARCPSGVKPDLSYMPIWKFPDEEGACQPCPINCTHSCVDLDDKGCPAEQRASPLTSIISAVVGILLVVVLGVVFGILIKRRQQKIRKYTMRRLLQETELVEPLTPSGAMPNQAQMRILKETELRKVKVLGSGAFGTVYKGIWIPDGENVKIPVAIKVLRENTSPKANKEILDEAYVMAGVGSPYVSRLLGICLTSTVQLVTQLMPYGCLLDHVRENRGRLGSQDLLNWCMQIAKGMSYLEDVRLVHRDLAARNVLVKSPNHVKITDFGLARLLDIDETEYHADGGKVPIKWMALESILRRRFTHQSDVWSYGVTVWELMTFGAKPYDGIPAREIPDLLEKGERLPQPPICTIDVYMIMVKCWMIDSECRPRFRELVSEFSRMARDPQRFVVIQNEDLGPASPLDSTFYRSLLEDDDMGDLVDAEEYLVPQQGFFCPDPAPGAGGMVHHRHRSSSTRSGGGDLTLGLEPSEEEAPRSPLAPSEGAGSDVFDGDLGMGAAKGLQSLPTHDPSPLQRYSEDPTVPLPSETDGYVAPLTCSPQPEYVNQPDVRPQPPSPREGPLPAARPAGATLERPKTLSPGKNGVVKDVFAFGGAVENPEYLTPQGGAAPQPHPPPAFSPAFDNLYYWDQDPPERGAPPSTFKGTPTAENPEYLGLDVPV
Parameter: IC50

// C=CC(=O)Nc1cc2c(Nc3ccc(OCc4ccccn4)c(Cl)c3)ncnc2cc1OCC[C@H]1CCCN1C [compound 95] : IC50 value = 5 to 10 nM

The compound identified as C=CC(=O)Nc1cc2c(Nc3ccc(OCc4ccccn4)c(Cl)c3)ncnc2cc1OCCN1CCOCC1 [compound 8] registered its IC50 at 10 to 20 nM

// recorded IC50 for C=CC(=O)Nc1cc2c(Nc3ccc(OCc4cccc(F)c4)c(Cl)c3)ncnc2cc1OCCCN1CC(OC)C1 [compound 144] : 30 to 50 nM

Quick note, IC50 for C=CC(=O)Nc1cc2c(Nc3ccc(OCc4ccccn4)c(Cl)c3)ncnc2cc1OCCN(C)CC [compound 32] landed at 10 to 20 nM

Kindly note the recorded IC50 for C=CC(=O)Nc1cc2c(Nc3ccc(Oc4ccc(C)nc4)c(C)c3)ncnc2cc1OCCN1CCOCC1 [compound 73] , which is 30 to 50 nM

IC50 reported for this compound CC#CC(=O)Nc1cc2c(Nc3cc(Cl)c(OCc4cccc(F)c4)cc3F)ncnc2cc1OCCN1CCOCC1 [compound 149] : 10 to 20 nM

The value of IC50 measured for the compound C=CC(=O)Nc1cc2c(Nc3ccc(OCc4ccccn4)c(Cl)c3)ncnc2cc1OCC1(N(C)C)CC1 [compound 54] turned out to be 20 to 30 nM

----------
target: HER2 S310F (Homo sapiens, UniProt P04626, S310F); construct: expressed in transfected cells; host or cells: BaF3 (murine pro-B); assay: BaF3 cell proliferation assay, HER2 S310F (Table B); assay type: cell-based; settings: potency code, 3 days, CellTiterGlo, read-out: HER2 S310F (Activity for Inhibiting HER2)
Parameter: IC50

Measured IC50, C=CC(=O)Nc1cc2c(Nc3ccc(OCc4cccc(C)n4)c(Cl)c3)ncnc2cc1OCCCN1CC(OC)C1 : 0.03 to 0.05 µM

Looking up C=CC(=O)Nc1cc2c(Nc3ccc(OCc4ccccn4)c(Cl)c3)ncnc2cc1OCCN1CCC2C1CCN2C (stereo not shown) , I see its IC50 listed as 0.02 to 0.03 µM

Sure, the documented IC50 for C=CC(=O)Nc1cc2c(Nc3ccc(OCc4ncccn4)c(Cl)c3)ncnc2cc1OCCCN1CCOCC1 is 0.03 to 0.05 µM

Value of IC50 reported for the compound C=CC(=O)Nc1cc2c(Nc3ccc(OCc4cccc(F)c4)c(Cl)c3)ncnc2cc1OCCN1CC(OC)C1 is 0.03 to 0.05 µM

In plain terms, C=CC(=O)Nc1cc2c(Nc3ccc(OCc4ccccn4)cc3F)ncnc2cc1OCCN1CCOCC1 has a documented IC50 of 0.05 to 0.1 µM

Value of measured IC50 for the entry C=CC(=O)Nc1cc2c(Nc3ccc(OCc4ccccn4)c(Cl)c3)ncnc2cc1C#CC(C)(C)N(C)C : 0.01 to 0.02 µM

Notebook: C=CC(=O)Nc1cc2c(Nc3ccc(OCc4ccccn4)c(Cl)c3)ncnc2cc1OC1CN(C)C1 , IC50 read as 0.01 to 0.02 µM

----------
biological target: EGFR V3 (Homo sapiens, UniProt P00533, DELINS30-297G); construct: expressed in transfected cells; host or cells: BaF3 (murine pro-B), retroviral pMXs-IRES-Blasticidin; assay: Activity for inhibiting EGFR (Table A), EGFR V3 (EGFR-Viii); assay type: cell-based; conditions: read-out: EGFR V3, potency code (IC50)
Parameter: IC50

Hey, EGFR V3 (Homo sapiens, UniProt P00533, DELINS30-297G) data for C=CC(=O)Nc1cc2c(Nc3ccc(OCc4ccccn4)c(Cl)c3)ncnc2cc1OCCN(C)C1CCOC1 (centres unmarked) [compound 41] : IC50 came out at 30 to 50 nM

Param item: C=CC(=O)Nc1cc2c(Nc3ccc(OCc4cnccn4)c(Cl)c3)ncnc2cc1OCCCN1CCOCC1 [compound 169] ; param system: EGFR V3 (Homo sapiens, UniProt P00533, DELINS30-297G); output IC50: 30 to 50 nM

C=CC(=O)Nc1cc2c(Nc3ccc(OCc4ccccn4)cc3)ncnc2cc1OCCN1CC2CN(C)CC2C1 (centres unmarked) [compound 81] on EGFR V3 (Homo sapiens, UniProt P00533, DELINS30-297G) gives IC50 = 100 to 200 nM

Tested on EGFR V3 (Homo sapiens, UniProt P00533, DELINS30-297G): C=CC(=O)Nc1cc2c(Nc3ccc(OCc4ccccn4)c(Cl)c3)ncnc2cc1C#CC(C)(C)N1CCN(C)CC1 [compound 65] . Observed IC50: 20 to 30 nM

Entry C=CC(=O)Nc1cc2c(Nc3ccc(OCc4ccccn4)c(Cl)c3)ncnc2cc1N1CC2(CCN2C)C1 [compound 50] , tested on EGFR V3 (Homo sapiens, UniProt P00533, DELINS30-297G), has a reported IC50 of 30 to 50 nM

# lookup: CC#CC(=O)Nc1cc2c(Nc3ccc(OCc4ccccn4)c(Cl)c3)ncnc2cc1C#CC(C)(C)N1CCN(C)CC1 [compound 89] on EGFR V3 (Homo sapiens, UniProt P00533, DELINS30-297G), IC50 = 30 to 50 nM

Entry C=CC(=O)Nc1cc2c(Nc3cc(C)c(OCc4ccccn4)cc3F)ncnc2cc1OCCN1CCOCC1 [compound 100] : IC50 on EGFR V3 (Homo sapiens, UniProt P00533, DELINS30-297G) = 30 to 50 nM

IC50 on EGFR V3 (Homo sapiens, UniProt P00533, DELINS30-297G) for C=CC(=O)Nc1cc2c(Nc3ccc(Oc4cccc(Cl)c4)cc3)ncnc2cc1OCCN1CCOCC1 [compound 37] is 100 to 200 nM

EGFR V3 (Homo sapiens, UniProt P00533, DELINS30-297G) data for C=CC(=O)Nc1cc2c(Nc3ccc(OCc4ccccn4)c(Cl)c3)ncnc2cc1C#CC(C)(C)NC [compound 88] ; its IC50: 30 to 50 nM

Entry C=CC(=O)Nc1cc2c(Nc3ccc(OCc4ccccn4)c(Cl)c3)ncnc2cc1N1CCN(C)CC1 [compound 42] ; assay system EGFR V3 (Homo sapiens, UniProt P00533, DELINS30-297G); IC50 recorded at 50 to 100 nM

Lab note: compound C=CC(=O)Nc1cc2c(Nc3ccc(OCc4ccccn4)c(Cl)c3)ncnc2cc1OCC1(N)CC1 [compound 55] tested on EGFR V3 (Homo sapiens, UniProt P00533, DELINS30-297G); recorded IC50 was 50 to 100 nM

The compound C=CC(=O)Nc1cc2c(Nc3ccc(OCc4ccccn4)c(Cl)c3)ncnc2cc1N(C)CCN1CCOCC1 [compound 7] on EGFR V3 (Homo sapiens, UniProt P00533, DELINS30-297G): IC50 was 100 to 200 nM

Summary line: C=CC(=O)Nc1cc2c(Nc3ccc(OCc4ccccn4)c(Cl)c3)ncnc2cc1C#C[C@H]1CCNC1 [compound 86] , EGFR V3 (Homo sapiens, UniProt P00533, DELINS30-297G), reported IC50 = 100 to 200 nM

Record C=CC(=O)Nc1cc2c(Nc3ccc(OCc4cccc(C)n4)c(Cl)c3)ncnc2cc1OCCCN1CCOCC1 [compound 129] / EGFR V3 (Homo sapiens, UniProt P00533, DELINS30-297G), IC50 recorded as 100 to 200 nM

Noted IC50 for C=CC(=O)Nc1cc2c(Nc3ccc(OCc4ccccn4)c(Cl)c3)ncnc2cc1OCCN1CCC(O)C1 (centres unmarked) [compound 30] , tested on EGFR V3 (Homo sapiens, UniProt P00533, DELINS30-297G): 30 to 50 nM

Entry C=CC(=O)Nc1cc2c(Nc3ccc(Oc4ccccc4)cc3)ncnc2cc1OCCN1CCOCC1 [compound 63] under EGFR V3 (Homo sapiens, UniProt P00533, DELINS30-297G) had IC50 of 50 to 100 nM

For the compound CC#CC(=O)Nc1cc2c(Nc3cc(Cl)c(OCc4cccc(F)c4)cc3F)ncnc2cc1OCCN1CCN(C)CC1 [compound 146] , the measured IC50 on EGFR V3 (Homo sapiens, UniProt P00533, DELINS30-297G) was 50 to 100 nM

The recorded IC50 with EGFR V3 (Homo sapiens, UniProt P00533, DELINS30-297G) for C=CC(=O)Nc1cc2c(Nc3ccc(OCc4cccc(F)c4)c(Cl)c3)ncnc2cc1OCCN1CCN(C)CC1 [compound 130] was 100 to 200 nM

Response field IC50 (EGFR V3 (Homo sapiens, UniProt P00533, DELINS30-297G)) for item C=CC(=O)Nc1cc2c(Nc3ccc(OCc4ccccn4)c(Cl)c3)ncnc2cc1N1CCC(N(C)C)C1 (centres unmarked) [compound 64] : 100 to 200 nM

Entry C=CC(=O)Nc1cc2c(Nc3ccc(OCc4ccccn4)cc3F)ncnc2cc1OC1CCN(C)C1 (centres unmarked) [compound 59] : IC50 on EGFR V3 (Homo sapiens, UniProt P00533, DELINS30-297G) = 30 to 50 nM

Summary line: C=CC(=O)Nc1cc2c(Nc3ccc(OCc4cccc(OC(F)(F)F)n4)c(Cl)c3)ncnc2cc1OCCN1CCOCC1 [compound 24] , EGFR V3 (Homo sapiens, UniProt P00533, DELINS30-297G), reported IC50 = 200 to 300 nM

# value of IC50, EGFR V3 (Homo sapiens, UniProt P00533, DELINS30-297G), item COC/C=C/C(=O)Nc1cc2c(Nc3ccc(OCc4ccccn4)c(Cl)c3)ncnc2cc1OCCN1CCOCC1 [compound 112] = 100 to 200 nM

The compound C=CC(=O)Nc1cc2c(Nc3cc(Cl)c(OCc4cccc(F)c4)cc3F)ncnc2cc1OCCN1CCN(C)CC1 [compound 145] on EGFR V3 (Homo sapiens, UniProt P00533, DELINS30-297G): IC50 was 50 to 100 nM
